# target.or.test.system: T1, human CD3 expressed on cells (Jurkat cells; human primary T cells) (human, UniProt P07766 23-207; P04234 22-171; P09693 23-182)
# T1 construct: whole, on cells
# T1 sequence (P07766 23-207, chain 1 of 3): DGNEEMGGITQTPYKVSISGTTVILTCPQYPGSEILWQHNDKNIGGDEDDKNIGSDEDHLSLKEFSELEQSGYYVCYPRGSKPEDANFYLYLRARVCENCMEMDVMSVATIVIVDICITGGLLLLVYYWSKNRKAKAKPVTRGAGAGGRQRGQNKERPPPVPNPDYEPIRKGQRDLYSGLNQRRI
# T1 sequence (P04234 22-171, chain 2 of 3): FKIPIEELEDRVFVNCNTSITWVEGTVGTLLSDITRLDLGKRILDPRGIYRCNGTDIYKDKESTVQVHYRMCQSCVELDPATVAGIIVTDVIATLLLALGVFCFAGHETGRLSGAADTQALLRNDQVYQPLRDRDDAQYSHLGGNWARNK
# T1 sequence (P09693 23-182, chain 3 of 3): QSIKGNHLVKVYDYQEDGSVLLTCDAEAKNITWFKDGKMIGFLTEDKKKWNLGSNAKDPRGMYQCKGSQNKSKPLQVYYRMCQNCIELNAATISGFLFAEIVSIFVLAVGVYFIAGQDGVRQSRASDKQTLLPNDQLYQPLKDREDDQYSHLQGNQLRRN
# experiment.notes: flow cytometry, 25 nM, Jurkat cells
measurement.name: Binding (FOI)
Provide the reading as a plain figure in FOI.

mAb 179 (antibody, V domains shown, VH/VL only) VH: EVQLVESGGGLVQPGRSLRLSCAASGFTFDDYTMHWVRQTPGKGLEWVSDISWNSGSIGYADSVKGRFTISRDNAKNTLYLQMNSLRAEDTALYYCVKDSSGYGHYLYYYMDVWGKGTTVTVSS VL: DIQMTQSPSSLSASVGDRVTITCRASQSIRNYLNWYQQSPGRAPKLLIFSASSLQSGVPSRFSGSGSGTDFTLTISSLQPEDFVTYYCQQRYSTPITFGQGTRLEIK ... 129

Now turn to the next binder.
(Q) Bench note: what Binding (FOI) did mAb 173 (antibody, V domains shown, VH/VL only) VH: EVQLVESGGGLVQPGRSLRLSCAASGFTFDDYTMHWVRQVPGKGLEWVSDISWNSGSVGYADSVKGRFTISRDNAKNSLYLQMNSLRAEDTALYYCVKDSSGYGHYFHYYMDVWGKGTTVTVSS VL: DIQMTQSPSSLSASVGDRVTITCRASQSISNYLNWYQVKPGKAPKVLIYAASSLQSGVPSRFSGSGSGTDFTLTISSLQPEDFVSYYCHQSYNTPITFGQGTRLEIK show?
(A) 109

Origin of values: patent US20230295310A1
